target: MAPK12 (human); assay: radiometric filter-binding kinase assay, Kinase HotSpot; details: compound 0.5 µM; ATP 10 µM
Measured Attribute: residual activity (%)
Kindly answer with a numeric value in %, unit omitted.

Item under review: CN(C)CCCn1cc(C2=C(c3c[nH]c4ccccc34)C(=O)NC2=O)c2ccccc21 . Reported residual activity?
95.9

How about CCCCc1c(-c2ccc(OC)cc2)[nH]c2nccnc12 ?
102

Also, Cc1nc(-c2ccccc2)c(-c2ccncc2)o1 please.
105

Try CN(C)c1ccc(/C=C2\C(=O)Nc3ccccc32)cc1 next.
102

One more compound: c1ccc2c(-c3ccncc3)c[nH]c2c1
104

====

target: FES (human) (UniProt P07332); experiment: radiometric filter-binding kinase assay, Kinase HotSpot; settings: compound 0.5 µM; ATP 10 µM
Sequence (P07332 whole entry, looked up): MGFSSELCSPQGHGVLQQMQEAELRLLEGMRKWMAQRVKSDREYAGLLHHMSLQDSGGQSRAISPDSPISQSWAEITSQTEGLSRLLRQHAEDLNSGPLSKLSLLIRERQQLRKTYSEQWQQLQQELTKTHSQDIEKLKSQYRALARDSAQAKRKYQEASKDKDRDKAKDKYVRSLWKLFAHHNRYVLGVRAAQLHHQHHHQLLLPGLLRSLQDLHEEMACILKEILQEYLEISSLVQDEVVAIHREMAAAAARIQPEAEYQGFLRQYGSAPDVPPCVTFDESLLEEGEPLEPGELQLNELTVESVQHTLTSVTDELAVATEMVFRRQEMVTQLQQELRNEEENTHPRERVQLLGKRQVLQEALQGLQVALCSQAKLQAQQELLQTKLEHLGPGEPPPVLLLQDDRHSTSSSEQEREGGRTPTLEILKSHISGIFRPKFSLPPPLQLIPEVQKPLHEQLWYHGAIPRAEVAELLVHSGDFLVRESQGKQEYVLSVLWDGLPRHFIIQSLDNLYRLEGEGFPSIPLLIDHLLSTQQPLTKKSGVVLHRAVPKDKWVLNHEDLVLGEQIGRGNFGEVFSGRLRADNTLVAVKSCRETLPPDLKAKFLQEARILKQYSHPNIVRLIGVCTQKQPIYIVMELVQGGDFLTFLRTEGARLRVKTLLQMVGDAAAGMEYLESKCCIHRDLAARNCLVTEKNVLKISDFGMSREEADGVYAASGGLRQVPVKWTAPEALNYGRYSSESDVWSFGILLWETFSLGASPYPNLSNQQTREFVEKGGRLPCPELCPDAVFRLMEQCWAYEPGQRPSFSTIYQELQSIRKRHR
Measured Attribute: residual activity (%)
# value in %; strip the unit string

Value lookup for residual activity; key = O=C1Nc2ccc(Br)cc2/C1=C\c1cc2c([nH]1)CCCC2
83.8

Then Cc1cncc2cccc(S(=O)(=O)N3CCCN(C(=O)CN)C[C@H]3C)c12 ?
102

Now try NC(=O)c1cccc(-c2cc(Nc3ccc(OC(F)(F)F)cc3)ncn2)c1 .
96.3

Queued: Cc1nc(-c2ccccc2)c(-c2ccncc2)o1
101

And what about the compound O=C1C(Cl)=C(N2C(=O)CCC2=O)C(=O)c2ccccc21 ?
97.5

Next compound up: Cc1cccc(-c2nc(C(C)(C)C)[nH]c2-c2ccc3c(c2)OCO3)n1
108

====

system: MAP2K6 (human), P52564 [S207E/T211E]; test: radiometric filter-binding kinase assay, Kinase HotSpot; conditions: compound 0.5 µM; ATP 10 µM
Sequence (P52564 whole entry S207E/T211E, looked up): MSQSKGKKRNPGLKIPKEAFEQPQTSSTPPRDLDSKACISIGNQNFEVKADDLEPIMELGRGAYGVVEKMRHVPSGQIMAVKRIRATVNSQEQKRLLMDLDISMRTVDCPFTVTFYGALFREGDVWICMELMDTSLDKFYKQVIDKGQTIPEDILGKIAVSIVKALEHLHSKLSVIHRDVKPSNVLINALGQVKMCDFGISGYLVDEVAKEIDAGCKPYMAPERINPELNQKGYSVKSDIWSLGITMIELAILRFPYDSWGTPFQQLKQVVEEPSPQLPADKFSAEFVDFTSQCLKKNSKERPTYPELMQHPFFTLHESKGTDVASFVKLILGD
Kindly state residual activity for each of the entries shown.
Don't forget the unit after the number, please.

// lookup residual activity for O=C(O)c1ccc2c3c1cccc3c(=O)n1c3ccccc3nc21
103%

Can you handle CCN(CC)CCNC(=O)c1c(C)[nH]c(/C=C2\C(=O)Nc3ccc(F)cc32)c1C next?
75.9%

Next up: NC(=O)c1cccc(-c2cc(Nc3ccc(OC(F)(F)F)cc3)ncn2)c1
101%

Please do the same for Ic1cccc(CSc2nnc(-c3ccncc3)o2)c1 as well.
97%

One more compound: O=C1NC(=O)c2c1c1c3ccccc3n3c1c1c2c2ccccc2n1C1CCC3O1
19.3%

Again, but for COc1ccc(Cl)cc1NC(=O)Nc1cc(C)nc2ccccc12
89.9%

Please give the result for COc1cc(Nc2c(C#N)cnc3cc(OCCCN4CCN(C)CC4)c(OC)cc23)c(Cl)cc1Cl too.
93.4%

Subsequent entry: O=C1NC(=O)/C(=C\c2ccc3nccnc3c2)S1
91.2%

Try this compound too: N#CCCc1ccc2c(c1)-c1[nH]c3ccc([N+](=O)[O-])cc3c1CC(=O)N2
97.2%

What about CC(C)[C@H](CO)Nc1nc(Nc2cccc(Cl)c2)c2ncn(C(C)C)c2n1 ?
105%

And for Nc1ccc2ncnc(NCCc3ccc(Oc4ccccc4)cc3)c2c1 ?
96.6%

Repeat with CN(C)CCCn1cc(C2=C(c3c[nH]c4ccccc34)C(=O)NC2=O)c2ccccc21
97.4%

Try the compound Nc1ncnc2c1cnn2-c1ccccc1
90.8%

COc1cc2ncnc(Nc3cccc(Cl)c3)c2cc1OC ?
88.7%

Thanks! And CNC(=O)c1cc(Oc2ccc(NC(=O)Nc3ccc(Cl)c(C(F)(F)F)c3)cc2)ccn1 ?
96.9%

What would you report for CO[C@H]1CC2CC[C@@H](C)[C@@](O)(O2)C(=O)C(=O)N2CCCC[C@H]2C(=O)OC([C@H](C)C[C@@H]2CC[C@@H](O)[C@H](OC)C2)CC(=O)[C@H](C)/C=C(\C)[C@@H](O)[C@@H](OC)C(=O)[C@H](C)C[C@H](C)/C=C/C=C/C=C/1C (some centres not stated) ?
107%

Subsequent entry: Clc1ccc(Nc2nnc(Cc3ccncc3)c3ccccc23)cc1
95.3%

How about this compound: CC#CC(=O)Nc1cc2c(Nc3ccc(F)c(Cl)c3)ncnc2cn1
100%

O=c1cc(N2CCOCC2)oc2c(-c3ccccc3)cccc12 ?
97.5%

What about this compound? CN(C)c1ccc(/C=C2\C(=O)Nc3ccccc32)cc1
94.7%

Moving on to O=c1cc(N2CCOCC2)oc2c1ccc1ccccc12
94.1%

Do the same for COc1cc2ncnc(Nc3ccc(O)c(Br)c3)c2cc1OC please
84.9%

Let us now turn to COc1ccc(CNC(=O)Nc2ncc([N+](=O)[O-])s2)cc1
85.9%

Please give the result for Cn1c2ccccc2c2c3c(c4c5ccccc5n(CCC#N)c4c21)CNC3=O too.
21.1%

Next: Cn1nc2c3c(cccc31)C(=O)c1ccccc1-2
96.4%

Entry to check: CC(=O)O/N=C1\C(=C2\C(=O)Nc3cc(Br)ccc32)Nc2ccccc21
87.2%

Another compound to check: CCOC(=O)c1c(C)[nH]c(/C=C2\C(=O)Nc3ccccc32)c1C
96.5%

And what about the compound O=C(CCCc1ccc(-c2ccccc2F)cc1)Nc1ccc(O)cc1 ?
97.5%

Moving on to Oc1cccc(-c2nc(N3CCOCC3)c3oc4ncccc4c3n2)c1
86.6%

Query O=C1Cc2c([nH]c3ccc(Br)cc23)-c2ccccc2N1 next
95.3%

Same question, O=C1Cc2c([nH]c3ccc([N+](=O)[O-])cc23)-c2ccccc2N1 this time
98.3%

Also CC(C)n1cnc2c(Nc3cccc(Cl)c3)nc(NCCO)nc21 ?
88.9%

Param item: O=C1Nc2cc(Br)ccc2/C1=C1/Nc2ccccc2/C1=N\O
98.2%

How about this compound: O=S(=O)(c1cccc2cnccc12)N1CCCNCC1
95.6%

Try this compound too: CCN(CC)CCCCN1c2ccccc2Oc2ccc(Cl)cc21
102%

Do the same for O=c1c2ccccc2[nH]c(=S)n1CCN1CCC(=C(c2ccc(F)cc2)c2ccc(F)cc2)CC1 please
102%

Another: O=C1NC(=O)/C(=C/c2ccc3c(c2)OC(F)(F)O3)S1
92.3%

Next record, please: O=C1NC(=O)c2c1c1c3ccccc3[nH]c1n1cncc21
65.7%

Also COc1cc2ncnc(Nc3ccc(OCc4ccccc4)cc3)c2cc1OC , if possible.
109%

Next up: O=C(c1cc2cc(O)ccc2[nH]1)c1cc2cc(O)ccc2[nH]1
93.6%

// repeat for Cc1cc2ncc(-c3ccccc3)nc2cc1C and report
91.1%

Moving on to the next compound: COc1ccc(S(=O)(=O)N(CCO)c2ccccc2CN(C)C/C=C/c2ccc(Cl)cc2)cc1
108%

====

target: RPS6KA1 KD1 KD2 (human) (UniProt Q15418); assay: radiometric filter-binding kinase assay, Kinase HotSpot; settings: compound 0.5 µM; ATP 10 µM
Sequence (Q15418 whole entry, looked up): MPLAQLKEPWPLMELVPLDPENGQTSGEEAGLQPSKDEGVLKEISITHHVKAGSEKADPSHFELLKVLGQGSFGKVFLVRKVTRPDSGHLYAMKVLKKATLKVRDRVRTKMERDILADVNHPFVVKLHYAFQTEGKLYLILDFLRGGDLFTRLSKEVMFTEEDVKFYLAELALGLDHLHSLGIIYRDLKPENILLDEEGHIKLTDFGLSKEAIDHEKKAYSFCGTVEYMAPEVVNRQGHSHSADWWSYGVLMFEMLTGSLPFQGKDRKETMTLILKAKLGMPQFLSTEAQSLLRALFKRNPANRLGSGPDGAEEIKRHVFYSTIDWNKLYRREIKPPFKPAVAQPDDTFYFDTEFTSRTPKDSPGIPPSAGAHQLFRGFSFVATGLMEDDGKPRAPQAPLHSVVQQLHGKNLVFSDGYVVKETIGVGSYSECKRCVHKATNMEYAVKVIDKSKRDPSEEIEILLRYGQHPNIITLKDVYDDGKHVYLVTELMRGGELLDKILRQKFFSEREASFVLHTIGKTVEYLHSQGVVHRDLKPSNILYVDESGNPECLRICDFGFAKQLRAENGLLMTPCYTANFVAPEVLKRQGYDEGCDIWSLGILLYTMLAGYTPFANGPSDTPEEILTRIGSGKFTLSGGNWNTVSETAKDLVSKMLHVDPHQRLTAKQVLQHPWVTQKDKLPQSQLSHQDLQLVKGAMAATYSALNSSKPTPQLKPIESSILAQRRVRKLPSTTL
So basically: residual activity at 90% or higher? That is True. Lower than 90%? That is False.

Evaluate c1ccc2c(-c3ccncc3)c[nH]c2c1 : residual activity at minimum 90%?
True

O=C1NC(=O)c2c1c1c3ccccc3[nH]c1n1cncc21 ?
False

Try Fc1ccc(-c2nc3n(c2-c2ccncc2)CCS3)cc1 next.
True

Follow-up item: COc1ccc2c(c1)c(C1=C(c3c[nH]c4ccccc34)C(=O)NC1=O)cn2CCCN(C)C
False

And what about the compound COc1ccc(Cl)cc1NC(=O)Nc1cc(C)nc2ccccc12 ?
False

Param item: N#Cc1c[nH]c2c[nH]/c(=N\Cc3cccnc3)cc2/c1=N\c1ccc(F)c(Cl)c1
True

// next record CN(C)c1ccc(/C=C2\C(=O)Nc3ccccc32)cc1
False

Now the same for Cc1nc(-c2ccccc2)c(-c2ccncc2)o1
True

Next entry: CN(C)CCCn1cc(C2=C(c3c[nH]c4ccccc34)C(=O)NC2=O)c2ccccc21
False

Then what about the compound NC(=O)c1cccc(-c2cc(Nc3ccc(OC(F)(F)F)cc3)ncn2)c1 ?
True

Would you kindly repeat that for O=C(c1cc2cc(O)ccc2[nH]1)c1cc2cc(O)ccc2[nH]1 ?
False

Next record, please: CS(=O)(=O)CCNCc1ccc(-c2ccc3ncnc(Nc4ccc(OCc5cccc(F)c5)c(Cl)c4)c3c2)o1
True

Request: N#C/C(=C\c1ccc(O)c(O)c1)C(=O)NCc1ccccc1
True

Field entry: O=C1c2ccccc2-c2nc3nnnn3nc21
False

====

biological target: PAK1 (human); assay: radiometric filter-binding kinase assay, Kinase HotSpot; conditions: compound 0.5 µM; ATP 10 µM
Measured Attribute: residual activity
Write your answer as a measured quantity: the number, then the unit.

Consider the compound shown here: CN(C)CCCn1cc(C2=C(c3c[nH]c4ccccc34)C(=O)NC2=O)c2ccccc21 What is its recorded residual activity?
84.2%

Likewise for CN(C)c1ccc(/C=C2\C(=O)Nc3ccccc32)cc1 ?
95.7%

Also O=C1NC(=O)c2c1c1c3ccccc3[nH]c1n1cncc21 , if possible.
93.9%

For O=C(c1cc2cc(O)ccc2[nH]1)c1cc2cc(O)ccc2[nH]1 then?
94.6%
